Test system: Escherichia coli 266
Assay: In vivo protection of mice versus Escherichia coli 266
Conditions: Escherichia coli, 266, sc, 96 h; 50 mg./kg., mice, subcutaneous route; read-out: % Protection
Where a name gives a salt, the structure may show the parent alone.
quantity-name: responders at 50 mg/kg (%)
Field: numeric (%). Do not append units.

Would you mind telling me what responders at 50 mg/kg value was observed for CC(C)(C)C(=O)OCOC(=O)[C@@H]1N2C(=O)[C@@H](NC(=O)[C@H](NC(=O)CCNC(=N)N)c3ccccc3)[C@H]2SC1(C)C [CH2 CH2 NH--C(NH)NH2, R=POM, Hydrochloride] ?
100

Same thing, different compound: CC1(C)S[C@@H]2[C@H](NC(=O)[C@H](NC(=O)NC(=N)N)c3ccccc3)C(=O)N2[C@H]1C(=O)O [B]
100

Next entry: CC1(C)S[C@@H]2[C@H](NC(=O)[C@H](N)c3ccccc3)C(=O)N2[C@H]1C(=O)O [D-α-aminobenzylpenicillin, reference compound]
100

Another compound to look at: CC1(C)S[C@@H]2[C@H](NC(=O)[C@H](NC(=O)C3CCCN(C(=N)N)C3)c3ccccc3)C(=O)N2[C@H]1C(=O)O (stereo partly shown) [C(NH)NH2, R=H]
80
